Source listed as PubChem BioAssay (NCI).

- System: KM12 colon
- Method Description: NCI-60 one-dose screen, 48 h (100 = growth as untreated, 0 = no growth, -100 = all killed)
- Condition Label: 10 µM unless noted
This is part of a sample that, as a whole, favours compounds with a hit. Of some 83,000 tested, about 20% had one in any assay.
Readout Name: growth (%)

CC(C)NC[C@@H](C(=O)N1CCN(c2ncnc3c2[C@H](C)C[C@H]3O)CC1)c1ccc(Cl)cc1	18.9
Cc1nc2ccc(-n3ncc(C(=O)c4cc5ccccc5[nH]4)c3N)cc2[nH]1	17.3
Cc1cnc(NC(=O)Nc2cc(Br)c(C)cc2OC[C@@H]2CNCCO2)cn1	15
CC(C)OP(=O)(CCC(=O)c1c[nH]c2ccccc12)OC(C)C	99.9
COc1ccc(Br)cc1NC(=O)Nc1cccc2c1ccn2Cc1ccnc(N)c1	10.3
NC(=O)N1N=C(c2ccc(Cl)cc2)CC1c1cn(-c2ccccc2)nc1-c1ccc(Cl)cc1 (stereo not given)	62.7
Brc1ccc([I+]c2ccc(Br)cc2)cc1	3.55
N#Cc1cc2[nH]c3ccc(OC(F)(F)F)cc3c2oc1=O	80.2
CCOc1cccc(/C=N/NC(=O)c2ccccc2Nc2ccnc(C(F)(F)F)c2)c1O	33.2
CN1CCN(c2ccc(OC(F)(F)F)c(Nc3ncc4c(n3)-c3c(c(C(N)=O)nn3CCO)CC4)c2)CC1	9.34
